- STUDY TARGET: human oestrogen receptor α (Homo sapiens)
- Construct: expressed in transfected cells; host or cells: JEG-3 human choriocarcinoma cells
- Sequence (P03372 1-595): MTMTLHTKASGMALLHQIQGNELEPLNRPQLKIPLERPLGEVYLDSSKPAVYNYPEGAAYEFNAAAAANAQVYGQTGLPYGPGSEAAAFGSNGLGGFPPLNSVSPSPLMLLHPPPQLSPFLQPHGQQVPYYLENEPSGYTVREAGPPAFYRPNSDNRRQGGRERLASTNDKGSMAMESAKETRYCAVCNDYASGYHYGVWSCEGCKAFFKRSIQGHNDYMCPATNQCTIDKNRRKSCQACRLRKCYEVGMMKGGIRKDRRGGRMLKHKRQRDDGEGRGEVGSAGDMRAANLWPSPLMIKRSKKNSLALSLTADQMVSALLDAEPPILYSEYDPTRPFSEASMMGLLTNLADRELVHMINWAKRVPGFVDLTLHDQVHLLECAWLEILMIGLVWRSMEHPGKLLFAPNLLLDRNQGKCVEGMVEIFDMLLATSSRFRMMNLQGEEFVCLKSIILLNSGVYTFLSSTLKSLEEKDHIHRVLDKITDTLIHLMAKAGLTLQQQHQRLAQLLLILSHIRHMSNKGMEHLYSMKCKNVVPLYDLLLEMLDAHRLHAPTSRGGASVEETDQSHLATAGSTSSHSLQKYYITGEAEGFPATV
- METHOD: Dual-luciferase reporter assay, full-length ERα and ERE in JEG-3 cells
- Type: cell-based
- STATED CONDITIONS: coexisted with 1 × 10^−9 M E2; read-out: IC50, anti-oestrogenic activity
pIC50: −log10 of the molar value.
ASSAY METRIC: pIC50

> print(dat)
                                   compound  quantitative.result
1  Oc1ccc(C2(c3ccc(O)cc3)c3ccccc3-c3ccccc32)cc1 [BHPF, 9,9-bis(4-hydroxyphenyl)-fluorene]                 6.96
